Reported values of PDI for individual entries
Assay: LNP size and polydispersity index (PDI) by dynamic light scattering (DLS)
Assay type: physicochemical
Condition set: Table 5; LNP 60:0:38.5:1.5 mol %; hEPO mRNA; N:P 6
Lab note: jot the number down without any unit.

Sample answers from the record:
{"Compound": "CCCCCCCCC(CCCCCC)C(=O)OCCN(CCOC(=O)C(CCCCCC)CCCCCCCC)C(=O)CN (centres unmarked)", "PDI": 0.198}
{"Compound": "CCCCCCCC(CCCCCCC)C(=O)OCCN(CCOC(=O)C(CCCCCCC)CCCCCCC)C(=O)C(N)Cc1ccccc1 (centres unmarked)", "PDI": 0.116}
{"Compound": "CCCCCCCCC(CCCCCC)C(=O)OCCN(CCOC(=O)C(CCCCCC)CCCCCCCC)C(=O)CNCCO (centres unmarked)", "PDI": 0.098}
{"Compound": "CCCCCCCC(CCCCCCC)C(=O)OCCN(CCOC(=O)C(CCCCCCC)CCCCCCC)C(=O)CN", "PDI": 0.15}

We now examine a further compound.
Prompt: State, in one line, measured PDI of CCCCCCCC(CCCCCCC)C(=O)OCCN(CCOC(=O)C(CCCCCCC)CCCCCCC)C(=O)C(C)N (centres unmarked)
Response: 0.244

====

In this section we review reported Encapsulation Efficiency % values for a set of molecules.
Assay: Encapsulation efficiency (EE %) by fluorescence based Ribogreen assay
Assay type: physicochemical
Condition set: Table 6; LNP 50:10:38.5:1.5 mol %; hEPO mRNA; N:P 6
Report only the number, with the unit % understood.

{"Molecule": "CCCCCCCCC(CCCCCC)C(=O)OCCN(CCOC(=O)C(CCCCCC)CCCCCCCC)C(=O)CCCN(C)C (stereo not drawn)", "Readout unit": "%", "Encapsulation Efficiency %": 98.3}
{"Molecule": "CCCCCCCCC(CCCCCC)C(=O)OCCN(CCOC(=O)C(CCCCCC)CCCCCCCC)C(=O)CCN(C)C (stereo not drawn)", "Readout unit": "%", "Encapsulation Efficiency %": 97}
{"Molecule": "CCCCCCCCC(CCCCCC)C(=O)OCCN(CCOC(=O)C(CCCCCC)CCCCCCCC)C(=O)CC(C)N (stereo not drawn)", "Readout unit": "%", "Encapsulation Efficiency %": 98.4}
{"Molecule": "CCCCCCCCC(CCCCCC)C(=O)OCCN(CCOC(=O)C(CCCCCC)CCCCCCCC)C(=O)CCN (stereo not drawn)", "Readout unit": "%", "Encapsulation Efficiency %": 98.5}
{"Molecule": "CCCCCCCCC(CCCCCC)C(=O)OCCN(CCOC(=O)C(CCCCCC)CCCCCCCC)C(=O)CCC(C)N (stereo not drawn)", "Readout unit": "%", "Encapsulation Efficiency %": 98.3}

The record that follows has no Encapsulation Efficiency % shown yet.
Prompt: Supply measured Encapsulation Efficiency % of CCCCCCCCC(CCCCCC)C(=O)OCCN(CCOC(=O)C(CCCCCC)CCCCCCCC)C(=O)CCCN (stereo not drawn) in your reply.
Response: 98.3

====

Overview of reported Size across a group of molecules:
Assay: LNP size and polydispersity index (PDI) by dynamic light scattering (DLS)
Type: physicochemical
Condition set: Table 1; LNP lipid:DSPC:Cholesterol:DMG-PEG2k 50:10:38.5:1.5 mol %; hEPO mRNA; N:P 6
Express your answer as a number followed by its unit.

Recorded Size, per entry:
{"Molecule": "CCCCCCCCCCCC(=O)OCCN(CCOC(=O)CCCCCCCCCCC)C(=O)C(N)Cc1ccccc1 (centres unmarked) [Compound 115]", "Size": "70.8 nm"}
{"Molecule": "CCCCCCCC/C=C\\CCCCCCCC(=O)OCCN(CCOC(=O)CCCCCCC/C=C\\CCCCCCCC)C(=O)C(N)CO (centres unmarked) [Compound 132]", "Size": "75.4 nm"}
{"Molecule": "CCCCCCCCCCCOC(=O)CCCCCN(CCO)CCCCCCCC(=O)OC(CCCCCCCC)CCCCCCCC [SM-102, reference compound]", "Size": "81.8 nm"}

Prompt: Please report Size for the following molecule: CCCCCCCCCCCC(=O)OCCN(CCOC(=O)CCCCCCCCCCC)C(=O)CN [Compound 103]
Response: 77.3 nm

Prompt: Tell me measured Size for CCCCCCCCCCCC(=O)OCCN(CCOC(=O)CCCCCCCCCCC)C(=O)C(N)CCCCN (centres unmarked) [Compound 121] please.
Response: 105.4 nm

Prompt: Give the reported value of Size for this record: CCCCCCCCCCCC(=O)OCCN(CCOC(=O)CCCCCCCCCCC)C(=O)C(C)N (centres unmarked) [Compound 109]
Response: 90.7 nm

====

# Encapsulation Efficiency % per record follows
Assay: Encapsulation efficiency (EE %) by fluorescence based Ribogreen assay
Format: physicochemical
Condition set: Table 1; LNP lipid:DSPC:Cholesterol:DMG-PEG2k 50:10:38.5:1.5 mol %; hEPO mRNA; N:P 6
# output: bare number, implied unit %

{"Molecule": "CCCCCCCCCC(=O)OCCN(CCOC(=O)CCCCCCCCC)C(=O)CN", "Readout unit": "%", "Test result": 94.4}
{"Molecule": "CCCCCCCCCCCC(=O)OCCN(CCOC(=O)CCCCCCCCCCC)C(=O)C(N)Cc1ccccc1 (stereo not shown)", "Readout unit": "%", "Test result": 89.5}
{"Molecule": "CCCCCCCC/C=C\\CCCCCCCC(=O)OCCN(CCOC(=O)CCCCCCC/C=C\\CCCCCCCC)C(=O)C(C)N (stereo not shown)", "Readout unit": "%", "Test result": 93}
{"Molecule": "CCCCCCCCCC(=O)OCCN(CCOC(=O)CCCCCCCCC)C(=O)C(N)CCCCN (stereo not shown)", "Readout unit": "%", "Test result": 94.2}
{"Molecule": "CCCCCCCCC(CCCCCC)C(=O)OCCN(CCOC(=O)C(CCCCCC)CCCCCCCC)C(=O)C(N)CO (stereo not shown)", "Readout unit": "%", "Test result": 95.1}

Prompt: Respond only with Encapsulation Efficiency % recorded for CCCCCCCCC(CCCCCC)C(=O)OCCN(CCOC(=O)C(CCCCCC)CCCCCCCC)C(=O)C(N)Cc1ccccc1 (stereo not shown)
Response: 96.7

Prompt: // fetch Encapsulation Efficiency % given entry CCCCCCCCCCCC(=O)OCCN(CCOC(=O)CCCCCCCCCCC)C(=O)C(C)N (stereo not shown)
Response: 97.6

====

Assay: LNP size and polydispersity index (PDI) by dynamic light scattering (DLS)
Format: physicochemical
Condition set: Table 5; LNP Lipid:DSPC:Cholesterol:DMG-PEG2k 50:10:38.5:1.5 mol %; hEPO mRNA; N:P 6
Binary call on Size with cut-off 70 nm: strictly below means condition met, and equality or higher means condition not met.

Record excerpt, results attached:
{"Molecule": "CCCCCCCC(CCCCCCC)C(=O)OCCN(CCOC(=O)C(CCCCCCC)CCCCCCC)C(=O)CN", "Label": "condition not met"}
{"Molecule": "CCCCCCC(CCCC)C(=O)OCCN(CCOC(=O)C(CCCC)CCCCCC)C(=O)CN (centres unmarked)", "Label": "condition not met"}
{"Molecule": "CCCCCCCCC(CCCCCC)C(=O)OCCN(CCOC(=O)C(CCCCCC)CCCCCCCC)C(=O)CNCCO (centres unmarked)", "Label": "condition met"}
{"Molecule": "CCCCCC(CCCCC)C(=O)OCCN(CCOC(=O)C(CCCCC)CCCCC)C(=O)C(C)N (centres unmarked)", "Label": "condition not met"}

Prompt: Please let me know if CCCCCCC(CCCC)C(=O)OCCN(CCOC(=O)C(CCCC)CCCCCC)C(=O)C(C)N (centres unmarked) shows Size below 70 nm.
Response: condition not met

Prompt: # check: Size < 70 nm for CCCCCCCCC(CC)C(=O)OCCN(CCOC(=O)C(CC)CCCCCCCC)C(=O)C(C)N (centres unmarked)
Response: condition not met

Prompt: Could you please tell me whether Size recorded for CCCCCCCCCCC(CCCC)C(=O)OCCN(CCOC(=O)C(CCCC)CCCCCCCCCC)C(=O)C(N)Cc1ccccc1 (centres unmarked) is less than 70 nm?
Response: condition met

====

Assay: LNP size and polydispersity index (PDI) by dynamic light scattering (DLS)
Assay type: physicochemical
Condition set: Table 8; LNP Lipid:DSPC:Cholesterol:DMG-PEG2k 50:10:38.5:1.5 mol %; hEPO mRNA; N:P 6
Reported Size values for a set of compounds
# output: bare number, implied unit nm

# example entries with known answers
{"Compound": "CCCCCCCCC(CCCCCC)C(=O)OCCN(CCOC(=O)C(CCCCCC)CCCCCCCC)C(=O)CCCNCC.Cl (stereo not drawn) [Compound 935]", "Result type": "Size", "Test result": 111.9}
{"Compound": "CCCCCCCCC(CCCCCC)C(=O)OCCN(CCOC(=O)C(CCCCCC)CCCCCCCC)C(=O)C(C)CNCCC.Cl (stereo not drawn) [Compound 928]", "Result type": "Size", "Test result": 75.5}
{"Compound": "CCCCCCCCCCCOC(=O)CCCCCN(CCO)CCCCCCCC(=O)OC(CCCCCCCC)CCCCCCCC [SM-102, reference compound]", "Result type": "Size", "Test result": 80.3}
{"Compound": "CCCCCCCC(CCCCCCC)C(=O)OCCN(CCOC(=O)C(CCCCCCC)CCCCCCC)C(=O)CCCN(C)C [Compound 932]", "Result type": "Size", "Test result": 123.7}
{"Compound": "CCCCCCCCC(CCCCCC)C(=O)OCCN(CCOC(=O)C(CCCCCC)CCCCCCCC)C(=O)CCCN(C)CC.Cl (stereo not drawn) [Compound 936]", "Result type": "Size", "Test result": 110.1}

Prompt: Please report the measured Size for CCCCCCCCC(CCCCCC)C(=O)OCCN(CCOC(=O)C(CCCCCC)CCCCCCCC)C(=O)CC(C)NCCC.Cl (stereo not drawn) [Compound 948]
Response: 74.1

Prompt: Note down Size recorded for CCCCCCCCCC(CCCCCCCC)C(=O)OCCN(CCOC(=O)C(CCCCCCCC)CCCCCCCCC)C(=O)CCCN(C)C.Cl (stereo not drawn) [Compound 933]
Response: 110.9

Prompt: Retrieve Size measured for CCCCCCCCC(CCCCCC)C(=O)OCCN(CCOC(=O)C(CCCCCC)CCCCCCCC)C(=O)CCCN1CCCCC1.Cl (stereo not drawn) [Compound 983] and print it.
Response: 90.4

Prompt: Provide measured Size value, entry: CCCCCCCCC(CCCCCC)C(=O)OCCN(CCOC(=O)C(CCCCCC)CCCCCCCC)C(=O)CCCN(CC)CCC.Cl (stereo not drawn) [Compound 980]
Response: 90.1
